assay: Method for Testing Solubilization: time required for completely dissolving crushed α-APM sample in water; type: physicochemical; settings: 250 mg crushed sample in 250 ml purified water, 26±2° C., magnetic stirrer 350-360 rpm, stirring and standing alternated every 30 seconds
Residues, ends and D or L forms follow the SMILES beside them.
Everything with time required for completely dissolving the sample (solubilization test) lower than 10 min is label 0; everything else, including exactly 10 min, is label 1.

- Molecule: "COC(=O)[C@H](Cc1ccccc1)NC(=O)[C@@H](N)CC(=O)O [compound 3, reference compound] (H-Asp-Phe-OMe)"
  Group label: "label 1"
- Molecule: "COC(=O)[C@H](Cc1ccccc1)NC(=O)[C@@H](N)CC(=O)O [Example 15] (H-Asp-Phe-OMe)"
  Group label: "label 0"

Quick check, time required for completely dissolving the sample (solubilization test) >= 10 min? COC(=O)[C@H](Cc1ccccc1)NC(=O)[C@@H](N)CC(=O)O [Example 1] (H-Asp-Phe-OMe)
label 0

For this molecule, is measured time required for completely dissolving the sample (solubilization test) 10 min or higher? COC(=O)[C@H](Cc1ccccc1)NC(=O)[C@@H](N)CC(=O)O [Example 17] (H-Asp-Phe-OMe)
label 0

Hello, I need to know if COC(=O)[C@H](Cc1ccccc1)NC(=O)[C@@H](N)CC(=O)O [compound 4, reference compound] (H-Asp-Phe-OMe) has measured time required for completely dissolving the sample (solubilization test) not below 10 min. Thanks!
label 1
